Values from PubChem BioAssay

experiment: PSAC antagonists in infected red cells, primary screen, cell-based, P. falciparum Indochina, OD700, 1 h (AID 1154); conditions: P. falciparum Indochina infected RBC osmotic lysis, called active from +8 up or from −8 down
Calls of active or inactive are those of the source.
Respond only with the outcome that fits, drawn from True (active), False (inactive)

                                   compound  assigned_label
0  CCOc1cc(C(O)C2C=CC3C(=O)N(c4ccccc4)C(=O)C3N2Nc2ccccc2)ccc1O (centres undefined)           False
1  COC(=O)C=C(CC(O)c1cccc(Cl)c1)OC (centres undefined)            True
2  COC(=O)[C@@]1(Cc2ccc(F)cc2)[C@H]2c3cc(C(=O)N(C)C)n(CC4CC4)c3C[C@H]2CN1C(=O)c1ccccc1           False

Per the records of this test, what outcome belongs to "C=C[C@H](COC(C)=O)N(C(=O)OC(C)(C)C)S(=O)(=O)c1ccc(Br)cc1" ?
False

Would you mind telling me which call this test gave CN1C(=O)C2C=CC(C(O)Cc3ccccc3)N(Nc3ccccc3)C2C1=O (centres undefined) ?
False

###

Record form. Attribute: composite z-score. Fill in for each entry.
experiment: binders of probe aHhip on microarray, primary screen, stem cell growth factor project, biochemical, small-molecule microarray, fluorescence 635/667 (AID 1087); settings: higher = more signal;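 note: score merges spot fluorescence at 667nm with spot signal to noise ratio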
Give bare numbers.

Compound	Observed Value
C[C@@]1([C@@H](NC(=O)c2ccccc2)c2ccc(-c3ccccc3)cc2)C[C@H]1C1CCCCC1	0.122
COCCOC(=O)N1C(=O)[C@@]2(c3cc(C#CC4=CCCCC4)ccc31)[C@H](C(N)=O)[C@H]1C(=O)O[C@H](c3ccccc3)[C@H](c3ccccc3)N1[C@@H]2c1ccc(OCCO)cc1	-0.237
O=C1C[C@]2(c3ccc([N+](=O)[O-])cc3)C(=O)N(CCN3CCOCC3)c3cc(CO)ccc3[C@H]2N1C1CCCCC1	-0.121

Kindly review the next compound as well.
Would you kindly share the measured composite z-score for COc1cc2c(cc1O)C(C1CC1)N(Cc1cc3c(cc1Br)OCO3)CC2 (centres undefined) ?
-0.394

###

molecular target: Left-right determination factor 2 (Homo sapiens); test: LEFTY2 binders on small-molecule microarrays, primary screen, biochemical, small-molecule microarray, 635 nm fluorescence scan (AID 1110); conditions: LEFTY2 binding, higher = more signal
Recorded Endpoint: composite z-score
Give bare numbers.

Below, each entry is followed by its recorded composite z-score result.
Compound	Observed Value
CCOC(=O)C[C@H]1[C@H](OC(=O)c2cc3ccccc3oc2=O)[C@@H](NC(=O)C2CCCCC2)c2cc(OCCCO)ccc2N1C(=O)c1ccccc1	0.493
COc1ccc(C(O)C2C=CC3C(=O)N(c4ccccc4)C(=O)C3N2Nc2ccc(C(C)C)cc2)cc1OCc1ccccc1 (centres undefined)	0.346
COc1cc2c(cc1OC)CN(C(=O)[C@H]1[C@@H]3C(=O)O[C@@H](c4ccccc4)[C@@H](c4ccccc4)N3[C@@H](c3ccc(O)cc3)[C@]13C(=O)Nc1ccc(C#CC4=CCCCC4)cc13)CC2	1.07

Parameter requested: composite z-score. Apply to each item below.
1. COCCOC(=O)N1C(=O)[C@@]2(c3cc(C#CC4=CCCCC4)ccc31)[C@H](C(=O)Nc1nc3ccccc3s1)[C@H]1C(=O)O[C@H](c3ccccc3)[C@H](c3ccccc3)N1[C@@H]2c1ccc(OCCO)cc1
2. COc1ccc([C@H]2C[C@H]3C(Br)=C[C@@H]2C(=O)[C@]32CO2)cc1
3. C=CCN(Cc1ccccc1)C(=O)C(c1cccs1)N(CCOCCO)C(=O)/C=C\C(=O)O (centres undefined)

1. 0.269
2. 0.446
3. -2.24

Hello, I would appreciate it if you could give composite z-score for each entry below.
1. O=C1C[C@]2(c3ccc([N+](=O)[O-])cc3)C(=O)N(CCN3CCOCC3)c3cc(CO)ccc3[C@H]2N1C1CCCCC1
2. COc1ccc([C@H]2OC[C@@H]3CC4(CC=CC4)C(=O)N32)cc1
3. COc1ccc(C(=O)Nc2ccc(CN3C(=O)[C@@]4(O[C@@H](CCn5cc([C@H](O)c6ccccc6)nn5)[C@H]([Si](C)(C)c5ccc(OC)cc5)[C@H]4C)c4ccccc43)cc2)cc1
4. COC(=O)[C@@]1(Cc2ccc(F)cc2)[C@@H]2[C@@H](CC(=O)[C@H]2CC(=O)C(=O)N(C)C)CN1C(=O)c1ccccc1

[-0.91, 0.935, -0.553, -0.211]

Dear colleague, could you please provide composite z-score for the compounds listed below?
1. CS(=O)(=O)CCOC(=O)C1=CC(CCCO)=CC(c2ccc(CN3CCCC3)cc2)N(Cc2cc3c(cc2Br)OCO3)C=C1C(=O)OCCS(C)(=O)=O (centres undefined)
2. O=C1OCC=C[C@H]2OC34C=CCN(CCN5CCOCC5)C(=O)[C@H]3N(CCCO)C(=O)[C@@H]4[C@@H]12 (some centres undefined)
3. CC(C)c1ccc(NN2C(C(O)C(c3ccccc3)c3ccccc3)C=CC3C(=O)N(c4ccccc4)C(=O)C32)cc1 (centres undefined)
4. CC(C)(C)OC(=O)CC[C@@]1(C(N)=O)N=C(c2ccc(OCCCO)cc2)O[C@@H]1c1ccccc1

[0.538, -0.235, 0.219, -0.289]

###

target: Calmodulin-1 (Homo sapiens); experiment: calcium-bound CALM1 binders on microarrays, profiling panel, artefact control for SMM control-protein annotation, biochemical, small-molecule microarray, Cy5-labelled CALM1, plus calcium (AID 1112); conditions: Cy5-CALM1 binding fluorescence, higher = more signal;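 note: score merges spot fluorescence with signal to noise from triplicate slides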
Kind request: treat 0.6 as inclusive, so composite z-score at 0.6 or higher is class 1, anything lower is class 0.

Take a look at these entries with their results.
Compound	Assigned Label
COC(=O)[C@@]1(Cc2ccccc2)[C@H]2c3cc(C(=O)N4CCCC4)n(Cc4nc5ccccc5[nH]4)c3C[C@H]2CN1C(=O)c1ccccc1	class 1
COCCOC(=O)N1C(=O)[C@@]2(c3cc(C#Cc4ccc(OC)cc4)ccc31)[C@H](C(=O)N1CCCCCCC1)[C@H]1C(=O)O[C@H](c3ccccc3)[C@H](c3ccccc3)N1[C@@H]2c1ccc(OCCO)cc1	class 1
O=C1OCC=C[C@H]2OC34C=CCN(CCN5CCOCC5)C(=O)[C@H]3N(CCCO)C(=O)[C@@H]4[C@@H]12 (stereo partly specified)	class 0
COC(=O)[C@@]1(Cc2ccc(OC)cc2)[C@H]2c3cc(C(=O)N4CCCC4)n(Cc4ccccc4)c3C[C@H]2CN1C(=O)c1ccccc1	class 1

Please turn your attention to the following entry.
Does composite z-score meet or surpass 0.6 for C=CCN(Cc1ccccc1)C(=O)C(c1cccs1)N(CCOCCO)C(=O)/C=C\C(=O)O (stereo unspecified) ?
class 0

###

test: inhibitors of hydroxyurea-induced Chk1 phosphorylation, primary screen, imaging, HeLa, phospho-Chk1 nuclear intensity (AID 1187); conditions: hydroxyurea-induced phospho-Chk1 immunofluorescence imaging, higher = more signal; note: test concentration not given here
Label Criterion met when z-score >= -0.1; otherwise Criterion not met.

Answered cases to consult:
Molecule	Assigned Label
CC(C)(C)OC(=O)CC[C@]1(C(=O)O)N=C(c2ccc(OCCCO)cc2)O[C@H]1c1ccccc1N=[N+]=[N-]	Criterion not met
COc1ccc([Si](C)(C)[C@@H]2[C@@H](CCO)O[C@]3(C(=O)N(Cc4ccc(N5C(=O)COc6ccccc65)cc4)c4ccccc43)[C@H]2C)cc1	Criterion not met
O=C1c2ccccc2[C@](Cc2ccccc2I)(C(=O)NC2CC2)[C@H](c2ccc(CO)cc2)N1C1CCCCC1	Criterion met
CN1C(=O)C2C=CC(C(O)c3ccccc3)N(Nc3ccccc3)C2C1=O (configuration not stated)	Criterion met

Quick check: does [N-]=[N+]=NCc1ccccc1C[C@@]1(C(=O)NCC(O)CO)N=C(c2ccc(OCCCO)cc2)O[C@@H]1c1ccccc1N=[N+]=[N-] (some centres not stated) have z-score greater than or equal to -0.1?
Criterion met

Identify whether the reported z-score of the following molecule is -0.1 or greater: CS(=O)(=O)CCOC(=O)C1=CC(CCCO)=CC(c2ccc(CN3CCCC3)cc2)N(Cc2cc3c(cc2Br)OCO3)C=C1C(=O)OCCS(C)(=O)=O (configuration not stated)
Criterion not met

Item "[N-]=[N+]=NCc1ccccc1[C@@H]1OC(c2ccc(OCCCO)cc2)=N[C@]1(CCS(=O)(=O)c1ccccc1)C(=O)NCc1ccccc1" with z-score of -0.1 or above?
Criterion not met

###

experiment: basal RPMI8226 viability, no added stimulus, profiling panel, cell-based, calcein-AM fluorescence, 48 h, PK04 Diversity Set (AID 1166); conditions: RPMI8226 myeloma viability, higher = more signal;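 note: cells grown under basal conditions without added stimulus; test concentration not given here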
Mark each entry 1 if its z-score sits below -0.9, and 0 for all others.

Hi there! Is z-score for "CC(C)C[C@@H]1NC(=O)[C@H]2C[C@@H](C(=O)NCCCCCCN(C)C)[C@@H](c3ccc(O)cc3)N2C1=O" below -0.9, do you know?
1

Given the entry "C=CCOC(=O)[C@H]1[C@@H]2C(=O)O[C@@H](c3ccccc3)[C@@H](c3ccccc3)N2[C@@H](c2ccc(OCCOC(=O)[C@H]3C[C@H]4C(=O)N5CCC[C@H]5C(=O)N4[C@H]3c3ccc(O)cc3)cc2)[C@]12C(=O)Nc1ccc(I)cc12" , would its reported z-score be below -0.9?
0

For "C=CC[C@@]1(C(=O)N(C)C)N=C(c2ccc(OCCCO)cc2)O[C@@H]1c1ccccc1N=[N+]=[N-]" , is the recorded z-score below the cut-off of -0.9?
1

Below -0.9 on z-score? Entry "COC(=O)[C@@]1(Cc2ccc(F)cc2)[C@@H]2[C@@H](CC(=O)[C@H]2CC(=O)C(=O)N(C)C)CN1C(=O)c1ccccc1"
1
